- Tested on: WSU-DLCL2 cells
- protocol_notes: Cell proliferation analysis (WSU-DLCL2, Cell Titer Glo)
- Format: cell-based
- condition_notes: Homo sapiens, WSUDLCL2, Table 3B, 6 days, read-out: WSU proliferation IC50
log10(IC50) overview
recorded_endpoint: log10(IC50) (log10 of the value in nM)

INSERT INTO results (compound, data_value) VALUES
  ('CCN(c1cc(-c2ccc(CN3CC(O)C3)nc2)cc(C(=O)NCc2c(C)cc(C)[nH]c2=O)c1C)[C@H]1CC[C@H](N(C)C)CC1', 2.83),
  ('CCN(c1cc(-c2ccc(CN3CCC(O)CC3)c(F)c2)cc(C(=O)NCc2c(C)cc(C)[nH]c2=O)c1C)C1CCOCC1', 2.68),
  ('CCN(c1cc(-c2ccc(CN3CCOCC3)nc2)cc(C(=O)NCc2c(C(F)(F)F)cc(C)[nH]c2=O)c1C)C1CCOCC1', 3.30),
  ('CCN(c1cc(-c2ccc(CN3CCC[C@H](O)C3)nc2)cc(C(=O)NCc2c(C(C)C)cc(C)[nH]c2=O)c1C)C1CCOCC1', 2.09),
  ('CCN(c1cc(F)cc(C(=O)NCc2c(C)cc(C)[nH]c2=O)c1C)C1C[C@@H](C)N(CC)[C@H](C)C1 (some centres unmarked)', 3.53),
  ('CCN(c1cc(-c2ccc(N3CCC(O)CC3)nc2)cc(C(=O)NCc2c(C)cc(C)[nH]c2=O)c1C)[C@H]1CC[C@H](N(C)C)CC1', 2.44),
  ('CCN(c1cc(-c2ccc(N3CCN(C)CC3)nc2)cc(C(=O)NCc2c(C)cc(C)[nH]c2=O)c1C)C1C[C@@H](C)N[C@H](C)C1 (some centres unmarked)', 2.20),
  ('CCN(c1cc(C#CCN2CCC[C@H](O)C2)cc(C(=O)NCc2c(C)cc(C)[nH]c2=O)c1C)[C@H]1CC[C@H](N(C)C)CC1', 2.64),
  ('CCN(c1cc(C#CCN2CCCCC2)cc(C(=O)NCc2c(C)cc(C)[nH]c2=O)c1C)C1CCOCC1', 2.27),
  ('CCN(c1cc(C#CCN2CC(O)C2)cc(C(=O)NCc2c(C)cc(C)[nH]c2=O)c1C)[C@H]1CC[C@H](N(C)C)CC1', 3.03),
  ('CCN(c1cc(-c2cnc(C(F)(F)F)cn2)cc(C(=O)NCc2c(C)cc(C)[nH]c2=O)c1C)C1CCOCC1', 2.99),
  ('CCN(c1cc(-c2cnc(N3CCN(C)CC3)cn2)cc(C(=O)NCc2c(C)cc(C)[nH]c2=O)c1C)[C@H]1CC[C@H](N(C)C)CC1', 2.50),
  ('CCN(c1cc(C#CCN2CCCN(C)CC2)cc(C(=O)NCc2c(C)cc(C)[nH]c2=O)c1C)C1CCC(N(C)C)CC1 (centres unmarked)', 2.90),
  ('CCN(c1cc(-c2ccc(CN3CCCCC3)nc2)cc(C(=O)NCc2c(C)cc(C)[nH]c2=O)c1C)C1CCOCC1', 1.40),
  ('CCN(c1cc(-c2ccc(CN3CCCC3)nc2)cc(C(=O)NCc2c(C)cc(C)[nH]c2=O)c1C)C1CCOCC1', 2.25),
  ('CCN(c1cc(C#CCN2CCCC2)cc(C(=O)NCc2c(C)cc(C)[nH]c2=O)c1C)C1CCOCC1', 1.42),
  ('CCN(c1cc(C#CC2CCN(C[C@@H](C)O)CC2)cc(C(=O)NCc2c(C(C)C)cc(C)[nH]c2=O)c1C)C1CCOCC1', 2.79),
  ('CCN1CCC(C#Cc2cc(C(=O)NCc3c(C)cc(C)[nH]c3=O)c(C)c(N(CC)C3CCOCC3)c2)CC1', 2.74),
  ('CCN(c1cc(-c2cnc(OC(C)C)cn2)cc(C(=O)NCc2c(C)cc(C)[nH]c2=O)c1C)C1CCOCC1', 2.86),
  ('CCN(c1cc(-c2ccc(N3CCCN(C)CC3)nc2)cc(C(=O)NCc2c(C)cc(C)[nH]c2=O)c1C)C1CCOCC1', 2.70),
  ('CCN(c1cc(-c2ccc(CN3CC[C@H](O)C3)nc2)cc(C(=O)NCc2c(C)cc(C)[nH]c2=O)c1C)[C@H]1CC[C@H](N(C)C)CC1', 2.39),
  ('CCN(c1cc(-c2ccc(CN3CCCN(C)CC3)nc2)cc(C(=O)NCc2c(C(C)C)cc(C)[nH]c2=O)c1C)C1CCOCC1', 2.75),
  ('CCN(c1cc(-c2ccc(CN3CCCN(C)CC3)nc2)cc(C(=O)NCc2c(C)cc(C)[nH]c2=O)c1C)C1CCOCC1', 2.25),
  ('CCN(c1cc(C#CCN2CC(O)C2)cc(C(=O)NCc2c(C(C)C)cc(C)[nH]c2=O)c1C)[C@H]1CC[C@H](N(C)C)CC1', 3.39);

Hey, just so you know, these numbers are from patent US11642348B2.
